# SYSTEM_TESTED: PD-1/PD-L1 (Homo sapiens, UniProt Q9NZQ7)
# Sequence (Q9NZQ7 19-238 limits assumed): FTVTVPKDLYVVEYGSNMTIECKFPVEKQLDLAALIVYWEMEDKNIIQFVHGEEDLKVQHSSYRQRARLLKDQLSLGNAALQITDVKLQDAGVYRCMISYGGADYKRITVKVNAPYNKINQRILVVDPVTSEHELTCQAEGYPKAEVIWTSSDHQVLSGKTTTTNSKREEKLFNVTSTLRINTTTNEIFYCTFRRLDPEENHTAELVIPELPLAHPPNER
# TEST_DESCRIPTION: PD-1/PD-L1 biochemical protein-protein interaction assay (ALPHA)
# CONDITION_SET: 0.3 nM His tagged PD-L1, 2.5 nM biotinylated Fc-PD-1; 60 minutes at 25° C.; read-out: IC50 PD-L1-PD1
ENDPOINT: IC50 (pM)

# compound Cc1c(COc2cc(OCc3cncc(C#N)c3)c(CN[C@@](C)(CO)C(=O)O)cc2Cl)cccc1-c1cccc(-c2ccc3c(c2)CNCC3NC(=O)NC2CC2)c1C (stereo partly shown) ; its IC50 = 64

1. C[C@](CO)(NCc1cc(Cl)c(OCc2cccc(-c3cccc(-c4ccc5c(c4)CNCC5)c3Cl)c2Cl)nc1OCc1cc(C#N)cc(C#N)c1)C(=O)O
2. Cc1c(COc2cc(OCc3cncc(C#N)c3)c(CN[C@@](C)(CO)C(=O)O)cc2Cl)cccc1-c1cccc(-c2ccc3c(c2)CNCC3NC(=O)NCC#N)c1C (stereo partly shown)
3. Cc1c(COc2cc(OCc3cncc(C#N)c3)c(CN[C@@](C)(CO)C(=O)O)cc2Cl)cccc1-c1cccc(-c2ccc3c(c2)NC(=O)CNC3)c1C
Sort these compounds on IC50 so the largest reading comes first. Respond with the label ranking, as requested. 1, 3, 2
(1: 312 pM, 3: 187 pM, 2: 90 pM)

###

# SYSTEM_TESTED: PD-1/PD-L1 (Homo sapiens, UniProt Q9NZQ7)
# TEST_DESCRIPTION: PD-1/PD-L1 biochemical protein-protein interaction assay (ALPHA)
# CONDITION_SET: 0.3 nM His tagged PD-L1, 2.5 nM biotinylated Fc-PD-1; 60 minutes at 25° C.; read-out: IC50 PD-L1-PD1
ENDPOINT: IC50 (nM)

Sample records with IC50:
Looking up Cc1c(COc2cc(OCc3cncc(C#N)c3)c(CN[C@@](C)(CO)C(=O)O)cc2Cl)cccc1-c1cccc(-c2ccc3c(c2)CNCC3O)c1C (stereo partly drawn) , I found its IC50 recorded as 0.064

In plain terms, CNC(=O)N[C@@H]1CNCc2cc(-c3cccc(-c4cccc(COc5cc(OCc6cncc(C#N)c6)c(CN[C@@](C)(CO)C(=O)O)cc5Cl)c4C)c3C)ccc21 has a documented IC50 of 0.064

Form field IC50, entry Cc1c(COc2cc(OCc3cncc(C#N)c3)c(CN[C@@](C)(CO)C(=O)O)cc2Cl)cccc1-c1cccc(-c2ccc3c(c2)C2CCC(C3)N2)c1C (stereo partly drawn) : 0.086

IC50 reading for COc1nc(-c2cccc(-c3cccc(-c4cc5c(s4)CCNC5)c3Cl)c2Cl)ccc1CNC[C@@H]1CCC(=O)N1 : 1.04

I. Cc1c(COc2nc(OCc3cncc(C#N)c3)c(CN[C@@](C)(CO)C(=O)O)cc2Cl)cccc1-c1cccc(-c2ccc3c(c2)CNC(COC(=O)NCCO)C3)c1C (stereo partly drawn)
II. Cc1c(COc2cc(OCc3cc(C#N)cc(C#N)c3)c(CN[C@@](C)(CO)C(=O)O)cc2Cl)cccc1-c1cccc(-c2ccc3c(c2)CNCC3)c1C
I'm curious, which of these has a smaller IC50 number: I or II ? Mark your selection by writing its label. I
